The measured values listed here are drawn from patent US20230117324A1.

- study_system: MAGL (Homo sapiens)
- Sequence (Q99685 1-303): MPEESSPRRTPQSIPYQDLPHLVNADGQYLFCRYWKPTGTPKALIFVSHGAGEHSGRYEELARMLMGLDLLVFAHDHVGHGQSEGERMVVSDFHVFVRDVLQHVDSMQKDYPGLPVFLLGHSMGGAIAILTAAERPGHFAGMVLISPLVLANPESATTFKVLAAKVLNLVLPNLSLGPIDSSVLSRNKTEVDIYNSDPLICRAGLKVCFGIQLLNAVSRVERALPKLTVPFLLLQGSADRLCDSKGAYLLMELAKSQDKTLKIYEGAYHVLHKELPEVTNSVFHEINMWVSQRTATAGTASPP
readout_name: log10 of IC50 (log10 of the value in nM)
Use the decimal logarithm of IC50 (nM).

Worked examples, 5 compounds total:
{"compound": "CC(Oc1ccc(C(F)(F)F)cc1)C1CN(C(=O)N2CC[C@@H]3OCC(=O)N[C@@H]3C2)C1 (single isomer, unassigned) [Example 99]", "log10 of IC50": 1.43}
{"compound": "O=C1CO[C@H]2CCN(C(=O)N3CC(c4ccc(N5CC6CC(C6)C5)cc4)C3)C[C@H]2N1", "log10 of IC50": -0.70}
{"compound": "CC(C)(C)Oc1ccc(C2CN(C(=O)N3CC[C@@H]4OCC(=O)N[C@@H]4C3)C2)cc1", "log10 of IC50": 0.00}
{"compound": "O=C1CO[C@H]2CCN(C(=O)N3CC(c4ccc(-c5ccccc5Cl)cc4)C3)C[C@H]2N1", "log10 of IC50": -1.00}
{"compound": "O=C1CO[C@H]2CCN(C(=O)N3CCN(C(c4ccc(F)cc4F)C(F)(F)F)CC3)C[C@H]2N1 (stereo partly drawn)", "log10 of IC50": 2.62}

Problem: // fetch log10 of IC50 given entry O=C1CO[C@H]2CCN(C(=O)N3CC(c4ccc(N5CCC(C(F)(F)F)C5)nc4)C3)C[C@H]2N1 (single isomer, unassigned) [Example 274]
Solution: 0.30
